Test: protein stability index of a GFP-peptide fusion (GPS, HEK-293T) (PSI 1-6); higher = more stable;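 further: 24-mer peptide tiles fused after GFP, lentivirally expressed, FACS-sorted into six equal bins by GFP/DsRed ratio, decoded by Illumina sequencing, PSI is the read-weighted mean bin number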
Settings: treatment: MLN4924 1 uM, 8 h; c terminus: a fixed tail appended
Class y: protein stability index at least 4. Class n: protein stability index below 4.

Given the entry IIELLEKDGMAFQEALDPGPFDQG [ELF3] , answer whether its protein stability index meets or surpasses 4.
n

Textbook exercise: given the entry YCVPRGNRRRFRVRQPILQYRWDM [BEX1] , state whether its protein stability index is greater than or equal to 4.
n

Identify whether the reported protein stability index of the following sequence is 4 or greater: NYLIFSQKPEFQDLSVEERSFVEK [RHOBTB3]
n

Given QARLEEQQRLAHLEDKLRLLAQAR [LRRC45] , state whether its protein stability index is at least 4.
n

Form field: protein stability index at least 4? Entry: ARNNNDPGRLTEALCLEVRPTYFE [RNF180]
y

Please check the record YNALKLFMEMNQKLFDDCTQQFKA [PPP2R5C] and state if its protein stability index is at or above 4.
n

Is it the case that KRKMVSWEASSLGLVTAALHMVIV [KMT2E] has protein stability index reaching or exceeding 4?
n

Item VKVIMDALDERAKVLHEDKQTREQ [TRIM29] with protein stability index of 4 or above?
n

Does the sequence HIGNSTQATVRDAVVGRPSMDKKA [ATL3] have recorded protein stability index that is 4 or more?
y

In plain terms: is recorded protein stability index at least 4 for ASRTSTIFLNGNRERPLNVFCDME [TNXB] ?
n

Identify whether the reported protein stability index of the following sequence is 4 or greater: MATSRYEPVAEIGVGAYGTVYKAR [CDK4]
n

Threshold query (protein stability index >= 4) on RSHPDNAIPIKSWFSDPSDTALLN [CTDNEP1]
n

Given the entry KRSAPSGPVRSSSGMGGRAPVSRG [RBMX] , answer whether its protein stability index meets or surpasses 4.
y

Determine whether this sequence has protein stability index no lower than 4: NSFGLRFGKREAAPGNHGRSAGRG [KISS1]
y

Can MDPPNPEEVKTPEEEMRSHYVAQT [GAGE1] be said to have protein stability index at or above 4?
y

Kindly determine if protein stability index recorded for AMFRLEHGEADRSTLKKALPTLSH [YJU2B] is above or exactly 4.
n

Is protein stability index at least 4? Consider ELKRLVESRRQQILREFEELHRRL [TRIM39]
n

Does protein stability index meet or surpass 4 for VVVSVAGAFRKGKSFILDFMLRYL [ATL3] ?
n

Decide: is the reported value of protein stability index for VNPFQLQQFRADPSTASLLLCPGG [TIAF1] equal to or greater than 4?
n

Is protein stability index at least 4? Consider AIRRRNVRGEDSGRKPERRRLKTT [DAPK3]
y

Could you tell me if the measured protein stability index of GVMLYTLLVGRYPFHDSDPSALFS [TRIB1] reaches 4 or more?
n

Given ATFVDKKRDLLGALKYWKKAMNMR [FEM1C] , state whether its protein stability index is at least 4.
n

// inclusive: protein stability index at least 4? input: QIVQLTQQVDTNISVILPTVHEVD [DENND6A]
n

Form field: protein stability index at least 4? Entry: CEERWLVIDRKVYNISEFTRRHPG [FADS1]
n

Could you verify whether the entry ETREYAPPSRGHGYRDYGHSRRHE [RBMY1A1] shows protein stability index of no less than 4?
y

I'd appreciate it if you could say whether LEFYRYYQQLKLEGPGEQETKLDL [SLC29A1] has protein stability index at least equal to 4.
n

Kindly determine if protein stability index recorded for QASVSCALEALEPFWEVLVRSTET [HDAC6] is above or exactly 4.
n

Is protein stability index for ADGQRHHSKLLVSGFWGVARHFNY [DHCR7] at or above 4?
n

Is protein stability index for GDWARLLEQMGALAVRGSRREREL [ZBED3] at or above 4?
n

Exam item: decide whether the reported protein stability index for TEALGCDPPLSQDERTHRSDRPFK [ZNF8] is at least 4.
y

Please check the record FSKASDSLQLVFGIELMEVDPIGH [MAGEA6] and state if its protein stability index is at or above 4.
n

Could you verify whether the entry KAAQQGKQEENDVVEKLNLFLDLL [SNX8] shows protein stability index of no less than 4?
n

Please check the record ELAYMKKNHEEEMKEFSNQVVGQV [KRT13] and state if its protein stability index is at or above 4.
y

In plain terms: is recorded protein stability index at least 4 for VLQMWHIVDKCTELLREGRASATT [ZBTB22] ?
n

Identify whether the reported protein stability index of the following sequence is 4 or greater: DVQARLNRSDHGIFHSRTSLQKLS [FCHSD1]
n

Test whether the sequence LALFSHLVNHVNIRLQAELEEGEN [SMG5] records protein stability index of 4 or higher.
n

Please check the record AKNLQEAEEWYKSKYADLSDAANR [PRPH] and state if its protein stability index is at or above 4.
y

Can YLTGTINGDPESVASLHWDGGALL [ADAMTS4] be said to have protein stability index at or above 4?
n

I'd appreciate it if you could say whether AQPNYIPTQQDVLRTRVKTTGIVE [GNAI1] has protein stability index at least equal to 4.
y

Quick check, protein stability index >= 4? AAAGAVGLERRDWSPSPPATPEQG [SPDEF]
y

Assess whether reported protein stability index for KERALSAPWLSLFPPEGNMEDKEM [ZNF263] sits at 4 or higher.
y

Record WDERGRAAAYSPSEALLYALVHDH [ANKRD9] ; criterion: protein stability index no lower than 4. Met?
n

Please check the record KKINSNQLENEQSQENSINPIQKE [SPANXN3] and state if its protein stability index is at or above 4.
y

Quick check, protein stability index >= 4? TSVFQKKLCTAHMCSTLEHNCAHF [MATN2]
n

Identify whether the reported protein stability index of the following sequence is 4 or greater: MFIPETKGCSLEQISMELAKVNYV [SLC2A12]
n

Quick check, protein stability index >= 4? PISAIRHEGKTDSERTDTAADGET [EPB41L3]
y

# bool: protein stability index of ELVALIPHSDQRLRPQRTKQYVLL [TMEM106C] >= 4
n

In plain terms: is recorded protein stability index at least 4 for RYVSNWDFFIVGCEVIFCVFIFYY [PKD2L1] ?
n

Dear colleague, could you confirm whether CWSFYGQGRKIAEVCCTSIVYATE [KCTD13] has protein stability index at or above 4?
n

// inclusive: protein stability index at least 4? input: KNWRNFASKWGMSYDELCFLEQRP [EDARADD]
n

State whether the measured protein stability index reaches 4, counting equality as reaching it, for TPPETKPDPPVNFLRQKVLSLPLP [PCMTD2]
n

Reference source: the supplement of paper PMC10567573
